System: basophils in whole blood from HDM allergic donors
Assay: Basophil Activation Test (BAT)
Type: cell-based, human
Conditions: 100 ng/ml; blood from HDM allergic individuals (n=14)
Quick reference for # of individuals of 14 with positive BAT test among some molecules
attribute.measured: # of individuals of 14 with positive BAT test

>  <molecule>
Derp2: major house dust mite allergen, group 2, Dermatophagoides pteronyssinus; control (protein, UniProt P49278 18-146, looked up) Mite group 2 allergen Der p 2: DQVDVKDCANHEIKKVLVPGCHGSEPCIIHRGKPFQLEAVFEANQNTKTAKIEIKASIDGLEVDVPGIDPNACHYMKCPLVKGQQYDIKYTWNVPKIAPKSENVVVTVKVMGDDGVLACAIATHAKIRD

>  <assay.result>
13

$$$$
>  <molecule>
A020: house dust mite protein; SEQ ID NO: 15 (Der f), 16 (Der p); Blo t SEQ ID NO: 316 printed as A0019 (protein) MSKPIFYYHPFSGPCRTVSTVAKILNVDMEMKKLDLLTKEHLNPEFLKVNPFHKVPTFVDSDGFVVDESRVIAMYLVESRKPDSFLYPKNDLKKRIQIDRWLHYDINLSTTISAPMFCVFRGHQVQDYQVEQGKETLKTLDGVMQSFEGKFLTGADQFTLADIAMYFSLNTMEVYPKYFKFDDYPNLKSWYHRVAEALKQYDTEGTIPKAIETMKQFIQQRAAEAEKH

>  <assay.result>
1

$$$$
>  <molecule>
Derf1: major house dust mite allergen, group 1, Dermatophagoides farinae; control (protein, UniProt P16311 99-321, looked up) Peptidase 1: TSACRINSVNVPSELDLRSLRTVTPIRMQGGCGSCWAFSGVAATESAYLAYRNTSLDLSEQELVDCASQHGCHGDTIPRGIEYIQQNGVVEERSYPYVAREQRCRRPNSQHYGISNYCQIYPPDVKQIREALTQTHTAIAVIIGIKDLRAFQHYDGRTIIQHDNGYQPNYHAVNIVGYGSTQGDDYWIVRNSWDTTWGDSGYGYFQAGNNLMMIEQYPYVVIM

>  <assay.result>
10

$$$$
>  <molecule>
Derf2: major house dust mite allergen, group 2, Dermatophagoides farinae; control (protein, UniProt Q00855 18-146, looked up) Mite group 2 allergen Der f 2: DQVDVKDCANNEIKKVMVDGCHGSDPCIIHRGKPFTLEALFDANQNTKTAKIEIKASLDGLEIDVPGIDTNACHFMKCPLVKGQQYDIKYTWNVPKIAPKSENVVVTVKLIGDNGVLACAIATHGKIRD

>  <assay.result>
13

$$$$
>  <molecule>
A018: house dust mite protein; SEQ ID NO: 5 (Der f), 6 (Der p), 314 (Blo t) (protein) MVKAVVVLKGDPNVSGTIFFEQQDNGPVKVTGSVQGLKPGLHGFHVHEFGDNTNGCTSAGAHYNPLNKTHGAPNDEERHVGDLGNIEANDKGVANVVIEDSLISLTGEKSIVGRSLVVHADPDDLGRGGHELSKTTGNAGGRLVCGVIGVTK

>  <assay.result>
0

$$$$
